# System: wild oat (Avena fatua)
# protocol_description: Test B pre-/postemergence plant response
# Assay type: in vivo
# cond: Postemergence, 16 g ai/ha; scale 0 to 100
# Text: […] Plant species in the flooded paddy test consisted of rice (Oryza sativa), umbrella sedge (Cyperus difformis), ducksalad (Heteranthera limosa) and barnyardgrass (Echinochloa crus-galli) grown to the 2-leaf stage for testing. […] Treated plants and controls were maintained in a greenhouse for 13 to 15 days, after which time all species were compared to controls and visually evaluated. […]
So I've got a bunch of compounds here, and I need their Plant response rating, Oat, Wild values.
// return just the number, without any unit appended

What Plant response rating, Oat, Wild value was documented for this compound, "Cc1cc(-c2ccc(C(F)(F)F)c(F)c2)nn1-c1c(O)c(C(F)(F)F)nn(C)c1=O" ? 95

I'd like to know its Plant response rating, Oat, Wild. The compound in question is "Cc1cc(-c2ccc(Cl)cc2)nn1-c1c(OC(=O)CC(C)C)cnn(C)c1=O" 95

Consider the compound shown here: "Cc1cc(-c2ccc(Cl)cc2)nn1-c1c(OC(=O)c2cccc(Cl)c2)cnn(C)c1=O" What is its recorded Plant response rating, Oat, Wild? 85

If you can, please state the reported Plant response rating, Oat, Wild value of "Cn1ncc(O)c(-n2nc(-c3ccc(Cl)cc3)cc2C2CC2)c1=O" . 98
